tested on: K-562 leukemia; test: NCI-60 one-dose screen, 48 h (100 = growth as untreated, 0 = no growth, -100 = all killed); conditions: 10 µM unless noted
This is part of a sample that, as a whole, favours compounds with a hit. Of some 83,000 tested, about 20% had one in any assay.
ASSAY_METRIC: growth (%)
The reply should be a number in %, with the unit left off.

Here is how some compounds turned out for growth.
>>> observed_measurement("O=S(=O)(NCCNc1nccc(-c2c(-c3cccc(O)c3)nc3sccn23)n1)c1ccc(F)cc1")
47.8
>>> observed_measurement("Fc1ccc(-c2nc(-c3nc4ncccc4[nH]3)cc3c2[nH]c2ccccc23)cc1F")
78.5
>>> observed_measurement("O=c1[nH]c(-c2ccccc2)nc(CN2CCCCC2)c1O")
112
>>> observed_measurement("COc1ccc(C(=O)c2cc(OC)c(OC)c(OC)c2OC)cc1O")
27.6
>>> observed_measurement("O=[N+]([O-])c1cc(S(=O)(=O)Oc2ccccc2)ccc1Cl")
1.22

// below: growth requested for another compound
Tell me measured growth for C=C1CCC2C3(C)COC(C)(C)OC3CCC2(C)C1C/C=C1/C(=O)OCC1Oc1ccccc1OC (stereo unspecified) please.
21.7
